Target: human GCG receptor (human, UniProt P47871 26-477)
Sequence (P47871 26-477): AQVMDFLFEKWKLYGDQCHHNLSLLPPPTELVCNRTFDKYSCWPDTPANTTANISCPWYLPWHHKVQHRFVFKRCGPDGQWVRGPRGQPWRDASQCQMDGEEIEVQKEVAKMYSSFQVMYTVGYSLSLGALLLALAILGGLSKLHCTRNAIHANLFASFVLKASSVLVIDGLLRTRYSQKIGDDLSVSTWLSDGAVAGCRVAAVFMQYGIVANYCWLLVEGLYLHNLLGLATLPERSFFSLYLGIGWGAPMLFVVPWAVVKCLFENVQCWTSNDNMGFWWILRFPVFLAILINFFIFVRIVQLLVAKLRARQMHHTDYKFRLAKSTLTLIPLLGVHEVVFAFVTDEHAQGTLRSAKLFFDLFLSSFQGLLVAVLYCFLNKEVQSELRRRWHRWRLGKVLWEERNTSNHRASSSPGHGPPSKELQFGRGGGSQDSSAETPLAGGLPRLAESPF
Assay: cell-based or functional assay
Positions of bridges follow the written chain, without caps; N, C: chain ends. Non-standard residues stand in square brackets, D forms with d. No end group written: not given here. *: point of attachment. Acetyl(2-(4-imidazolyl)) = O=C(Cc1c[nH]cn1)*; Aib = CC(C)(N)C(=O)O
Below, each entry is listed with its recorded In vitro activity relative to native peptide (%), vs. Glucagon (cAMP EC50).
Numbers only here, please. The scale is %.

binder="H[Aib]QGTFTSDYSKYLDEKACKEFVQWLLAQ (bridge 16-20) [trigonal agonist of SEQ ID NO: 31]" result_unit=% endpoint_result=2.2
binder="H[Aib]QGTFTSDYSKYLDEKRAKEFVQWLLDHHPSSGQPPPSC (bridge 16-20) [trigonal agonist of SEQ ID NO: 50]" result_unit=% endpoint_result=50.5
binder="Y[Aib]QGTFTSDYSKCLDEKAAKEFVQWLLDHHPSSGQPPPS (bridge 16-20) [trigonal agonist of SEQ ID NO: 68]" result_unit=% endpoint_result=8.8
binder="H[Aib]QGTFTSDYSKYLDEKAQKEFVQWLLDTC (bridge 16-20) [trigonal agonist of SEQ ID NO: 30]" result_unit=% endpoint_result=0.7
binder="H[Aib]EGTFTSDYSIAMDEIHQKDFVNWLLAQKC (bridge 16-20) [trigonal agonist of SEQ ID NO: 79]" result_unit=% endpoint_result=4.9
binder="H[Aib]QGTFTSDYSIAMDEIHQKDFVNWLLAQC (bridge 16-20) [trigonal agonist of SEQ ID NO: 55]" result_unit=% endpoint_result=0.7
binder="H[Aib]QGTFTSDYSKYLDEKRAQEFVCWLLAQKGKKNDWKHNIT [trigonal agonist of SEQ ID NO: 28]" result_unit=% endpoint_result=1.6
binder="Y[Aib]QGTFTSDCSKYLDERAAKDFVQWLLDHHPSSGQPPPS (bridge 16-20) [trigonal agonist of SEQ ID NO: 72]" result_unit=% endpoint_result=1
binder="{Acetyl(2-(4-imidazolyl))}-[Aib]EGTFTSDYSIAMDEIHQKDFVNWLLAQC (bridge 15-19) [trigonal agonist of SEQ ID NO: 83]" result_unit=% endpoint_result=1.3
binder="Y[Aib]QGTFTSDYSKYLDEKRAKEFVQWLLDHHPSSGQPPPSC (bridge 16-20) [trigonal agonist of SEQ ID NO: 42]" result_unit=% endpoint_result=206

-- ask Fill blank: measured In vitro activity relative to native peptide (%), vs. Glucagon (cAMP EC50) of the binder H[Aib]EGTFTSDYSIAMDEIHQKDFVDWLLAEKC (bridge 16-20) [trigonal agonist of SEQ ID NO: 80] is ____.
-- reply 0

-- ask Fill blank: measured In vitro activity relative to native peptide (%), vs. Glucagon (cAMP EC50) of the binder {Acetyl(2-(4-imidazolyl))}-[Aib]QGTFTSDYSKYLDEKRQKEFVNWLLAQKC (bridge 15-19) [trigonal agonist of SEQ ID NO: 93] is ____.
-- reply 0.3

Entry source: patent US20230390362A1
